test: yeast display, Sf9 membrane polyspecificity reagent, FACS + sequencing; frameworks hold sequencing errors
measurement.label: polyreactivity (PSR sort gate)

{"biosequence": "QVQLVESGVGLVQAGGSLRLSCAASGSIFFPNAMGWYRQAPGKQRELVAAITSTSTNYAESVKGRCTISRDNAKNTVYLQMNSLKPEDTAVYYCAADGEFRRAWYEGDYWGQGTQVTVSS", "obs.value": "low polyreactivity"}
{"biosequence": "QVQLVESGGGLVQAGGSLRLSCAASGSTFRYNAMGWYRQAPGKVRELVAAIDKRGDSTYADSVKGRFTISRDNAKNTVYLQMNSLKPEDTAVYYCAADSDSKYNYGFLWDTYEYWGQGTQVTVSS", "obs.value": "low polyreactivity"}

----------
assay: yeast display, Sf9 membrane polyspecificity reagent, FACS + sequencing; frameworks hold sequencing errors
measurement.label: polyreactivity (PSR sort gate)

{"biosequence": "QVQLVESGGGLVQAGGRLRLSCAASGSIFSIYPMGWYRQAPGKERDFVASITVTDGSTYYADSVKGRFTISRDNAKNTVYLQMNSLKPEDTADYYCNADGWYALYEWLAVSGYYWGQGTQVTVSS", "measurement.label": "polyreactivity (PSR sort gate)", "obs.value": "low polyreactivity"}
{"biosequence": "QVQLVESGGGLVQAGGSLRLSCAASGSTFTPYGMGWYRQAPGKERELVAAITVSGGRTYYADSVKGRFTISRDNAKNTVYLQMNSLKPEDTAVYYCAAVYLRGDGEYDYWGQGTQVTVSS", "measurement.label": "polyreactivity (PSR sort gate)", "obs.value": "low polyreactivity"}
{"biosequence": "QVQLVESGGGLVQAGGSLRLSCAASGSTFRYNAKGWYRQAPGKERELVAAINRGGGTDYADSVKGRFTISRDNAKNTVYLQMNSLKPEDTAVYYCAKQFVSYNRWLAYGYWGQATQVTVSS", "measurement.label": "polyreactivity (PSR sort gate)", "obs.value": "low polyreactivity"}
{"biosequence": "QVQLVESGGGLVQAGGRLRLSCAASGITFYSYAMGRYRQAPGKERELVAAISTTVGSTYYADYVKGRFTISRDNPNNTVYLQMNSLKPEDTAVYYCNSYSVYAWIEYNYWGQGTQVTVSS", "measurement.label": "polyreactivity (PSR sort gate)", "obs.value": "low polyreactivity"}
{"biosequence": "QVQLVESGGGLVQAGGSLRLSCAASGRIITRYAMGWYRQAPGKERELVAAISSGGSTYYADSVKGRFTISRDNAKNTVYLQMNSLKPEDTAVYYCARGWSGAYAGGYWGQGTQVTVSS", "measurement.label": "polyreactivity (PSR sort gate)", "obs.value": "high polyreactivity"}

Enquiry: Look at this sequence and give its reported polyreactivity (PSR sort gate). "QVQLVESGRGLVQAGGSLRLSCAASGSTFDANAMGWYRQAPGKERELVAAISRSGGNTYYADSVKGRFTISRDNAKNTVYLQMNSLKPEDTAVYYCAADFRNAYYDRLDYWGQGTHVTVSS"
Return: low polyreactivity

Enquiry: Look at this sequence and give its reported polyreactivity (PSR sort gate). "QVQLVESAGGLVQAGGSLRLSCAASGFTFGENALGWYRQAPGKERELVAAIRYSGGSTYYADSVKGRFTLSRDNAKNTVYLQLNSLKAEDTAVYYCNADTYALGAAVIPGDEYWGQGTQVTVSS"
Return: low polyreactivity

Enquiry: Look at this sequence and give its reported polyreactivity (PSR sort gate). "QVQLVESGGGLVQAGGSLRLSCAASGIIFPYYAMGWYRQAPGKERELVAGISSSGGITYADSVKGRFTISRDNAKNTVYLQMNSLKPEDTAVYYCAARYPARGTLYYWGQGTQVTVSS"
Return: low polyreactivity

Enquiry: Look at this sequence and give its reported polyreactivity (PSR sort gate). "QVQLVESGGGLVQAGGSLRLSCAASGSTFGLNPMGWYRQAPGKERELVAAISTSGGSTYYADSVKGRFTISRDNAKNTVYLQMNSLKPEDTAVYYCAAEVVAGYDYSQYYYWGQGTQVTVSS"
Return: low polyreactivity

Enquiry: Look at this sequence and give its reported polyreactivity (PSR sort gate). "QVQLVESGGGLVQAGGSLRLSCAASGLTIRYYAMGWYRKAPGKERELVAAISSSGGRTYYADSVKGRFTISRDNAKNTVYLQMNSLKPEDTAVYYCSRDYGYGLMGYWGQGTQVTVSS"
Return: high polyreactivity

Enquiry: Look at this sequence and give its reported polyreactivity (PSR sort gate). "QVQLVESGGGLVQAGGSLRLSCAASGSTIPPYAMGWYRQAPGKERELVAAITSGGSTYYAESVKGRFTISRDNAKNTVYLQMNSLKPEDTAVYSCAASWDPWEYDYWGQGTQVTVSS"
Return: low polyreactivity

----------
test: yeast display, Sf9 membrane polyspecificity reagent, FACS + sequencing; frameworks hold sequencing errors
measurement.label: polyreactivity (PSR sort gate)

Observe how each entry below is paired with its result.
{"biosequence": "QVQLVESGGGLVQAGGSLRLSCAASGRIFSYYAMGWYRQAPGKEREFVATITYAGGSTYYADSVKGRFTISRDNAKNTVYFQMNSLKPEDTAVYYCAARGYSYRGWRMDYWGQGTQVTVSS", "polyreactivity (PSR sort gate)": "high polyreactivity"}
{"biosequence": "QDQLVESGGGLVQAGGSLRLSCAASGSTFVYYAMGWYRQAPGKERELVAAISRTGNTYYADSVKGRFTISRDNAKNTVYLQMNSLKPEDSAVYYCAKDYWRAYGSYEYWGQGTQVTVSS", "polyreactivity (PSR sort gate)": "low polyreactivity"}
{"biosequence": "QVQLVESGGGLVQAGGSLRLSCAASGITFIGYVMGWYRQAPGKERELVAAISRSGASTYYADSVKGRFTISRDNAKNTVYLQMNSLKPEDTAVYYCATVRYHPAYYYWGQGTQVTVSS", "polyreactivity (PSR sort gate)": "high polyreactivity"}
{"biosequence": "QFQLVESGGGLVQAGGSLRSSCAASGFIFREYAMGWYRQAPGKERELVAAISTSGGDTYYADSVKGRFTISRDNAKNTVYLQMNSLKPEDTAVYYCAAEYDGYWDSNRGNYWGQGTQVTVSS", "polyreactivity (PSR sort gate)": "low polyreactivity"}

Turning now to a further record.
Enquiry: Look at this sequence and give its reported polyreactivity (PSR sort gate). "QVQLVESGGGLVQAGGSLRLSCAASGSTFYTNDMGWYRQAPGKERELVAAITSAGNTNYADSVKGRFTISRDNAKNTVYLQMNSLKPEDTAVYYYYYYQYDYWGQGTQVTVSS"
Return: low polyreactivity

----------
assay: yeast display, Sf9 membrane polyspecificity reagent, FACS + sequencing; frameworks hold sequencing errors
measurement.label: polyreactivity (PSR sort gate)

Observe how each entry below is paired with its result.
{"biosequence": "QVQLVESGGGLVQAGGSLRLSCAASGRNLPSYAMGWYRQAPGKERELVAAISGSGGRTYYSDSVKGRFTISRDNAKNTVYLQMNSLKQEDTAVYYCAARQDDYGKINYYWGQGTQVTVSS", "polyreactivity (PSR sort gate)": "high polyreactivity"}
{"biosequence": "QDQLVESGGGLVQAGGSLRLSCAASGSIFPHNAKGSYRQAPGKERELVASITSRGGITYYADSVKGRFTISRDNAKNTVYLQMNSLKPEDTAVYYCAADTYTDGYDYWGQGTQVTVSS", "polyreactivity (PSR sort gate)": "low polyreactivity"}
{"biosequence": "QVQLVESGGRLVQAGGSLRLICAASGFTFGAYAMGWYRQAPGKERELVATIPYSGDSTYYADSVKGRFTISRDNAKNTVYLQMNSLKPEDTSVYYCAAYSTEGCGSPDWFESFDYWGQGTLVTVSS", "polyreactivity (PSR sort gate)": "low polyreactivity"}
{"biosequence": "QVQLGDSGGGLVQAGGSLRLSCAASGRIFYGNAMGWYRQAPWKERELVAAISSGGGSTYYADSVKGRFTISRDNAKNTVYLQMNSLKPEDNAVYYCAADPVPRFPGTGGYWGQGTQVTVSS", "polyreactivity (PSR sort gate)": "low polyreactivity"}

Turning now to a further record.
Enquiry: Look at this sequence and give its reported polyreactivity (PSR sort gate). "QVQLVDSGGGLVQAGGSLRLTCAASGSIFNYYTMGWSRQAPGKERELVAAISSSGGSTYYADSVKGRFTISRDNAKNTVYLQMNSLKPVDTAVYFCNTYPPAHREYESWGQGTQLTVSS"
Return: high polyreactivity

----------
experiment: yeast display, Sf9 membrane polyspecificity reagent, FACS + sequencing; frameworks hold sequencing errors
measurement.label: polyreactivity (PSR sort gate)

Observe how each entry below is paired with its result.
{"biosequence": "QVQLVESGRGLVQAGGSLRLSCAASGIIFEYYTMGWSRPAPGKERELVASITYDGDSTYYADSVKGRFTISRDNAKNTVYLQMNSLKPEDTAVYYCAAEYYYVYSSFGHFYWGQGTQVTVSS", "obs.value": "low polyreactivity"}
{"biosequence": "QVQLVESGGGLVQAGGSLRLSCAASGRTFDYNAMGWYRQAPGKERELVAAISSSGGSTYYADSVKGRFTISRDNAKNTVYLQMNSLKAEDTAVYYCATLYPRKSIYYYWGQGTQVTVSS", "obs.value": "high polyreactivity"}
{"biosequence": "QVQLVESGGGLVQAGGSLRLSCAASGFTRIYAMGWYRQAPGKEREMVAAISQRGGRTYYADSVKGRFTISRDNAKNTVSLQKNSLKQEDTAVYYCNSDLRSYNYPEYEYDYWGQGTQVTVSS", "obs.value": "high polyreactivity"}
{"biosequence": "QVQLVESGGGLVQAGGSLRLSCAASGRIFTGNAMGWYRQAPGKERELVAAITGRGGNTYYADSVKGRFTISRDNAKNTVYLQMNSLKPEDTAVYYCAKVFFHTPIVPEFEYWGQGTQVTVSS", "obs.value": "low polyreactivity"}
{"biosequence": "QVQLVESGGGLVQAGGSLRLSCAASGRIFYHNARGWYRQAPGKERELVAAIYSTGGSTYYADSVKGRFTISRDNAKNTVYLQMNSLKPEDTAVYYCATQYFRKYGYDYWGKGTQVTVSS", "obs.value": "low polyreactivity"}

Enquiry: Look at this sequence and give its reported polyreactivity (PSR sort gate). "QVQLVESGGGLVQSGGSLRLSCAGSGSTFHYNAMGWYRQAPGKEREFVAAISRTGTSTYYADSVKGRFTISRDNAKNTVYLQMNSLKPEDTAVYYFAAKSLRSGMGYWGQGTQVTVSS"
Return: high polyreactivity

Enquiry: Look at this sequence and give its reported polyreactivity (PSR sort gate). "QVQLVESGGGLVQAGGSLRLSCAASGRISIWYDMGWYIQAPGKEREFVASITSGGSTYADSVKGRFTISRDNAKNTVYLQMNSLKPEDTAVYYCAADEAPYVPSEQRHSRFSHWGQGTQVTVSS"
Return: low polyreactivity

Enquiry: Look at this sequence and give its reported polyreactivity (PSR sort gate). "QVHLVESGGGLVQAGGSLRLSCAASGSTFYNNAMGLYRQAPGKERELVASISLSAGSTYYADSVKGRFTISRDNAKNTVYLQMNSMKPEDTAVYYCAAESVAILVLVYPKGYGYWGQGTQVTVSS"
Return: low polyreactivity

Enquiry: Look at this sequence and give its reported polyreactivity (PSR sort gate). "QVQLVETRGGLVQAGGSLRFSCAPSGRISLIYDMGWYRQAPAKERELVASITWSGDSTYYADSVKGRFTNSRDNAKNTVYLQMNSLKPVDTAVYYCAAVCWTYEYWEWYDYWGQVTQVTVSS"
Return: high polyreactivity

Enquiry: Look at this sequence and give its reported polyreactivity (PSR sort gate). "QVQLVESGGGLVQAGGSLRLSCAASGRTFRYNTMGWYRQAPGKERELVAITYRGGSTYADSVKGRFTISRDNAKNTVYLQMNSLKPEDTAVYYCAKVVNWCRGYGGTDHYYWGQGTQVTVSS"
Return: high polyreactivity

Enquiry: Look at this sequence and give its reported polyreactivity (PSR sort gate). "QVQLVESGGGLVQAGGSLRLSCAASGSTFTGYAMGWYRPAPGKESELVAAISISGGRTFYADSVKGRFTISRDNAKNTVYLQMNSLKPEDTSVYYCAVYRRGGVEAFLYWGQGTQVTVSS"
Return: high polyreactivity

Origin of values: the nanobody polyreactivity screen of Harvey et al. (2022)
